Listed compounds paired with reported growth inhibition
- Test Name: NCI Yeast Anticancer Drug Screen. Data for the cln2 rad14 strain (AID 165);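 also: 0% = growth equal to vehicle treated cultures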
- Test Context: S. cerevisiae cln2 rad14 strain, at 50.0 µM, hits give high values
The panel holds about 79,000 compounds, 15% with a hit somewhere; the sample as a whole holds those more often.
API: value field is a number in %; no unit string.

Solved entries (count: 3):
INSERT INTO measurements (compound, measured_quantity, observed_measurement) VALUES
  ('ON1c2ccccc2-c2ccccc2C1(c1ccccc1)c1ccccc1', 'growth inhibition', 69.8),
  ('CC1(C)OCC(C2OC3OC(C)(C)OC3C2c2ccccc2)O1 (stereo not given)', 'growth inhibition', 1.4),
  ('NC(Cc1ccccc1)C(=O)NCC(=O)Oc1ccc([N+](=O)[O-])cc1 (stereo not given)', 'growth inhibition', 18.1);

## Input Entry O=C1C=C(CCC2=CC(=O)c3ccccc3C2=O)C(=O)c2ccccc21 : reported growth inhibition = ?
## Output -10.9

## Input Consider next the compound O=C(Nc1ccc(Cl)cc1)OC(C(=O)c1ccccn1)c1ccccn1 (stereo not given) in the same way.
## Output 5.75

## Input Consider next the compound CCn1c(C)cc(=NC(=O)c2ccccc2O)n1-c1ccccc1 in the same way.
## Output 11.5

## Input Consider next the compound CC(C)(NC(=O)OC12CC3CC(CC(C3)C1)C2)C(=O)O in the same way.
## Output -12.6

## Input Consider next the compound Cc1cccc(CCSCCc2cccc(C)[n+]2[O-])[n+]1[O-] in the same way.
## Output 17.4

----------
- Test Name: NCI Yeast Anticancer Drug Screen. Data for the sgs1 mgt1 strain (AID 161);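 also: 0% = growth of cultures given vehicle only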
- Test Context: S. cerevisiae sgs1 mgt1 strain, at 50.0 µM, hits give high values
The panel holds about 79,000 compounds, 15% with a hit somewhere; the sample as a whole holds those more often. Calls of active or inactive are those of the source. No stated cut-off is given here; in the data, active means growth inhibition above about 70%; inactive means the rest.
Measured Quantity: growth inhibition

INSERT INTO assay_data (compound, observed_measurement) VALUES
  ('S=C(NCc1cccnc1)Nc1ccc(Cl)c(Cl)c1', '27.9% (inactive)'),
  ('CCC(CC)=NNS(=O)(=O)c1cccc2ccccc12', '-11.7% (inactive)'),
  ('O=C(O)CC(=O)c1ccccc1', '-10.4% (inactive)'),
  ('CC(=O)OC1CCC2(C)C(CCC3(C)C2CCC2C4C5OC(=O)C4(CCC5(C)C)CCC23C)C1(C)C (configuration not stated)', '-17.1% (inactive)'),
  ('BrCCCC1OCCO1', '85.8% (active)'),
  ('c1ccc(N=C2CCCCCC2)cc1', '-5.8% (inactive)'),
  ('Fc1ccc(-c2cc(-c3ccc(F)cc3)cc(-c3ccc(F)cc3)c2)cc1', '13.2% (inactive)'),
  ('CC1(C)N=C(N)N=C(N)N1c1ccc(CN)cc1', '-18.4% (inactive)'),
  ('C#CC(C)(O)c1ccccc1 (configuration not stated)', '-7.75% (inactive)'),
  ('O=C(O)COc1ccc(/C=C2\SC(=S)NC2=O)cc1', '1.6% (inactive)');

## Input Entry O=C1c2ccccc2CC12Cc1ccccc1C2 : reported growth inhibition = ?
## Output -3.85% (inactive)

## Input Consider next the compound N#C/C=C\c1ccc(Cl)cc1 in the same way.
## Output -30.4% (inactive)

----------
- Test Name: NCI Yeast Anticancer Drug Screen. Data for the sgs1 mgt1 strain (AID 161);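 also: 0% = growth of cultures given vehicle only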
- Test Context: S. cerevisiae sgs1 mgt1 strain, at 50.0 µM, hits give high values
About 79,000 compounds went through this panel and 15% of them were active in at least one assay; those are over-represented in the sample as a whole. Where a SMILES comes first, the peptide text is derived from it.
Listed compounds paired with reported growth inhibition
API: value field is a number in %; no unit string.

Solved entries (count: 4):
INSERT INTO assay_data (compound, measured_quantity, observed_measurement) VALUES
  ('O=c1c2cccnc2cc(-c2ccccc2)n1CCO', 'growth inhibition', -16.2),
  ('Cc1cc2c(cc1C)C(=O)c1ccccc1C2=O', 'growth inhibition', -15.1),
  ('NC(=O)C(Cc1ccc(O)cc1)NC(=O)c1ccccc1 (stereo not given)', 'growth inhibition', -0.1),
  ('COc1ccc(C(=O)/C=C/c2ccc(OCCSCCCCCCCCCCSCCOc3ccc(/C=C/C(=O)c4ccc(OC)c(OC)c4)cc3)cc2)cc1OC', 'growth inhibition', -28.2);

## Input Entry O=Cc1ccc(OC(=O)c2ccccc2)cc1 : reported growth inhibition = ?
## Output 13.3

## Input Consider next the compound CC1(C)CCCC/C1=N\O in the same way.
## Output 3.8

## Input Consider next the compound CCCCNc1ccc(S(=O)(=O)c2ccc(NCCCC)c([N+](=O)[O-])c2)cc1[N+](=O)[O-] in the same way.
## Output 15.2

## Input Consider next the compound c1ccc(-c2nnc3nn4c(-c5ccccc5)cnnc4c3c2-c2ccccc2)cc1 in the same way.
## Output -14.8

## Input Consider next the compound O=C(c1nc2ccc([N+](=O)[O-])cc2[nH]c1=O)C(O)c1ccc([N+](=O)[O-])cc1 (stereo not given) in the same way.
## Output 12.9

## Input Consider next the compound Cc1nc2cc([N+](=O)[O-])ccc2c(NCCCN(C)C)c1C in the same way.
## Output 7.25

## Input Consider next the compound c1ccc2n[nH]nc2c1 in the same way.
## Output 7.3

## Input Consider next the compound NN1CCOC1=O in the same way.
## Output 11.7

## Input Consider next the compound CC(=O)NC(C(=O)N1CCCC1C(=O)O)C(C)C (stereo not drawn) (Ac-Val-Pro-OH; configuration not given here) in the same way.
## Output -6.65

## Input Consider next the compound Cc1c2c(c(C)c3c1C(=O)c1cc4c(cc1C3=O)OCO4)OC(C)O2 in the same way.
## Output -18.6

## Input Consider next the compound O=C(O)c1cc(/C=C/c2cc(O)ccc2O)ccc1O in the same way.
## Output -24.8

## Input Consider next the compound O=C(/C(=C/c1ccccc1)N1CCOCC1)c1cccc2ccccc12 in the same way.
## Output 17.1

## Input Consider next the compound CCOC(=O)C1CCCCN1C(=O)OCc1ccccc1 (stereo not given) in the same way.
## Output 0.75

## Input Consider next the compound C/C(=N\NC(=O)CC(=O)Nc1ccccc1Cl)c1cc2cc(N=Nc3ccccc3Cl)ccc2oc1=O in the same way.
## Output 13.9

## Input Consider next the compound COc1ccc(C=Nc2ccc3c(c2)OCO3)cc1Br in the same way.
## Output 11.7

----------
- Test Name: NCI Yeast Anticancer Drug Screen. Data for the rad50 strain (AID 155);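 also: 0% = growth of vehicle-only cultures of the same strain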
- Test Context: S. cerevisiae rad50 strain growth inhibition; at 50.0 µM; hits give high values
Compounds without any hit were thinned out: in the full panel of roughly 79,000, 15% have a hit.
Listed compounds paired with reported growth inhibition
API: value field is a number in %; no unit string.

Solved entries (count: 2):
INSERT INTO results (compound, observed_measurement) VALUES
  ('COc1cc2ccc3c[n+](C)ccc3c2cc1OC', 2.25),
  ('NCCCCC(N)C(=O)O (centres undefined)', 7.4);

## Input Entry Cc1cc(C)c(C)c(C(=O)OC(C)C)c1C : reported growth inhibition = ?
## Output 2.7

## Input Consider next the compound Cc1ccc(N2CCCCN(c3ccc(C)cc3)/C(c3ccccc3)=C\2c2ccccc2)cc1 in the same way.
## Output -8.55

----------
- Test Name: NCI Yeast Anticancer Drug Screen. Data for the cln2 rad14 strain (AID 165);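 also: 0% = growth equal to vehicle treated cultures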
- Test Context: S. cerevisiae cln2 rad14 strain, at 50.0 µM
The panel holds about 79,000 compounds, 15% with a hit somewhere; the sample as a whole holds those more often. Active and inactive are the calls of the source. Cut-off read from the data, not from the text of the source: active = growth inhibition above about 70%; inactive = the rest.
A correct response names exactly one class from class 1 = active, class 0 = inactive

INSERT INTO measurements (compound, group) VALUES
  ('CN(C=O)c1ccc([N+](=O)[O-])cc1', 'class 0'),
  ('O=C(O)COc1cc(Br)cc(Br)c1', 'class 0'),
  ('COC1OC(COC(=O)c2ccc([N+](=O)[O-])cc2)C(SC#N)C1O (centres undefined)', 'class 0');

## Input Assay outcome for O=[N+]([O-])c1ccc(COP(=O)(OCc2ccc([N+](=O)[O-])cc2)OCc2ccc([N+](=O)[O-])cc2)cc1 : what was it?
## Output class 0

## Input Consider next the compound CCc1cnc(N)nc1N in the same way.
## Output class 0

## Input Consider next the compound O=C(O)C1CCC(=O)N1Cc1ccccc1 (centres undefined) in the same way.
## Output class 0

## Input Consider next the compound CCCCCCCC(NC(C)=O)(C(=O)OCC)C(=O)OCC in the same way.
## Output class 0

## Input Consider next the compound N=C(N)SCC(O)C(O)CSC(=N)N (centres undefined) in the same way.
## Output class 0

----------
- Test Name: NCI Yeast Anticancer Drug Screen. Data for the bub3 strain (AID 167)
- Test Context: S. cerevisiae bub3 mutant strain, at 50.0 µM, hits give high values
This is part of a sample that, as a whole, favours compounds with a hit. Of some 79,000 tested, about 15% had one in any assay.
Listed compounds paired with reported growth inhibition
API: value field is a number in %; no unit string.

INSERT INTO measurements (compound, measured_quantity, unit_descriptor, observed_measurement) VALUES
  ('NC(=S)NNC(=O)c1ccccc1', 'growth inhibition', '%', 6.75),
  ('Cc1ccc(S(=O)(=O)N/N=C(/c2ccccc2)c2ccsc2C)cc1', 'growth inhibition', '%', 41.3),
  ('COC(=O)c1cccc2c(N)c(N)cc(C(=O)OC)c12', 'growth inhibition', '%', 9.3),
  ('C/C(=N/Nc1ccc([N+](=O)[O-])cc1[N+](=O)[O-])C(C)(C)C', 'growth inhibition', '%', -8.75),
  ('COc1cc2c3c4c1OCc1c5c(cc(c1-4)CC3[N+](C)(C)CC2)OCO5 (stereo unspecified)', 'growth inhibition', '%', 11.1),
  ('c1ccc(C2=NN(c3ccccc3)C3C4CCC(C4)C23)cc1 (stereo unspecified)', 'growth inhibition', '%', 13.8),
  ('O=C1c2ccccc2C(=O)N1Cc1ccccc1-c1c2nc(c(-c3ccccc3CN3C(=O)c4ccccc4C3=O)c3ccc([nH]3)c(-c3ccccc3CN3C(=O)c4ccccc4C3=O)c3nc(c(-c4ccccc4CN4C(=O)c5ccccc5C4=O)c4ccc1[nH]4)C=C3)C=C2', 'growth inhibition', '%', 13.6),
  ('CCCOC(=O)c1ccccc1C=O', 'growth inhibition', '%', -10.3),
  ('COc1cc(O)c(C(=O)C2Cc3ccccc32)c(OC)c1 (stereo unspecified)', 'growth inhibition', '%', 9.1),
  ('C=C1CC[C@H]2C(C)=CC[C@@H]3[C@H](OC(=O)[C@H]3COC)[C@@H]12', 'growth inhibition', '%', -18.6);

Turning now to a further compound:
## Input Entry Oc1c(Cl)cc(Cl)cc1C=Nc1ccc2c(ccc3c4ccccc4ccc23)c1 : reported growth inhibition = ?
## Output 6.55
